Tested on: MS2 coat protein
Test: apparent KD of MS2 coat protein; designed switch direction (-1 OFF switch, 1 ON switch): -1; higher = weaker reporter binding
Details: input ligand: microRNA oligo, concentration not stated
Recorded metric: apparent KD of MS2 coat protein (nM)
Quick note: give the figure in nM, leave out the unit.

Give the reported apparent KD of MS2 coat protein for this sequence. UGUUGUCGCGUAGGAUAUGGCCAACAGGCCCUAGGAUAUCGGAAACGAGAAGGAGCGCCAACAGGCGAGAAGGACGGGACAACU [pwkr exNG2 2xF7 2xFMN.20] (Eterna round: R96, puzzle: Exclusion NG 2) 52.7

Give the reported apparent KD of MS2 coat protein for this sequence. UUGUUCCGUGUAGGAUAUUGGUCUCCCUCGGGCCGAGAAGGACAUGAGGAUCACCCAUGUAUGCUAUUAUCGCGCGUGGCGCAU [Design 92] (Eterna round: R96, puzzle: Exclusion NG 1) 48.5

Give the reported apparent KD of MS2 coat protein for this sequence. UUUCUGUGAGGAUAUCAGUAGUAAAUAAAUAAAAUUACUACUGAGAAGGCACAUGAGGAUCACCCAUGUUCCUU [salish99_ex3_r3_093] (Eterna round: R96, puzzle: Exclusion 4) 12.9

---

Tested on: MS2 coat protein
Assay: apparent KD of MS2 coat protein; designed switch direction (-1 OFF switch, 1 ON switch): 1; higher = weaker reporter binding
Conditions: input ligand: microRNA oligo, concentration not stated
Below is a list of entries, each paired with its recorded apparent KD of MS2 coat protein value.
Quick note: give the figure in µM, leave out the unit.

Give the reported apparent KD of MS2 coat protein for this sequence. ACAUGAGAGUGAGGAUAUACUGUACCUACAUGUGACAUGAGGAUCACCCAUGUGGUAAGUAUGACGUAGAAGGCACAGAUAUGU [Equivalance 79 - Jieux - Same State NG 2] (Eterna round: R96, puzzle: Same State NG 2) 0.118

Give the reported apparent KD of MS2 coat protein for this sequence. CUGAGCAAUCAAGGAUAUCACGUCGAUUAGACGUGAGAAGGUGAUCAUAACAUGAGGAUCACCCAUGUAUUACAUGAAGCUCAG [SSNG1/1-A2] (Eterna round: R96, puzzle: Same State NG 1) 0.692

Give the reported apparent KD of MS2 coat protein for this sequence. GGUAAGAAUUAAGGAUAUUGAAUACAUAUGUUUAACAUGAGGAUCACCCAUGUGGGUUGCGGUGUCGAGAAGGUAAAAUAAUAG [Mat - same State NG 2 - JL mod - D101] (Eterna round: R96, puzzle: Same State NG 2) 0.166

***
Give the reported apparent KD of MS2 coat protein for this sequence. GUGGAGGGUUGAGGAUAUUGAAUACAUAUGUUUAACAUGAGGAUCACCCAUGUGGGUUGCGGUAUCGAGAAGGUAAAUUGCUGG [salish99_SSNG2_r04_037] (Eterna round: R96, puzzle: Same State NG 2) 0.0721

Give the reported apparent KD of MS2 coat protein for this sequence. AAGAAAGUUUACGAGGAUAUGUUCCGCAUAACAUGAGGAUCACCCAUGUGAACAAGAAAGGCGACGCAGAAGGCGUGAGCAAAGA [Atanansori] (Eterna round: R96, puzzle: Same State 2) 0.152

Give the reported apparent KD of MS2 coat protein for this sequence. GCGAGCGUACUUGCAACAUGAGGAUCACCCAUGUUAACUGGACAGGAUAUGGUACCGUUUCGGUACCAGAAGGGUUCCUUCAUG [JL SSNG3 3.60] (Eterna round: R96, puzzle: Same State NG 3) 0.166

---

Tested on: K4 kissing-loop RNA reporter
Assay: apparent KD of K4 kissing-loop reporter; higher = weaker reporter binding
Settings: Eterna round: R107; input ligand: none
Below is a list of entries, each paired with its recorded apparent KD of K4 kissing-loop reporter value.
Quick note: give the figure in nM, leave out the unit.

Below: 4 sequences and their reported apparent KD of K4 kissing-loop reporter.
Give the reported apparent KD of K4 kissing-loop reporter for this sequence. AAUAAUCUAGGUGAUACCAGCUCAACAUGAGUGAUGUUCAUGAACUAAUGUAGAGUUGAGAGCCCUUGGCAGCACCUAGAUAAUA [KL-SSTheoB6] 966

Give the reported apparent KD of K4 kissing-loop reporter for this sequence. CGCCACAACUGAAGGAGCGCGCCAGUGAUGUUGGACGGCUUCGUCAAGGAAACUGCACCGGUGCAGGUAGGUCGCAGUGCGUGGU [Eranarve] 204

Give the reported apparent KD of K4 kissing-loop reporter for this sequence. CGCAGUGAUGUUGCUAUUAUUCUUGAUUAACGAGGACCGGUACGGCCGCCACUCGAUUUCUAUCUAAUCCAGUGUUUUGUUGAGU [JR_ExcTryptoA_Sub002] 346

Give the reported apparent KD of K4 kissing-loop reporter for this sequence. UGUCAUUGGUCGGCCGCCACUUCAAGGUCAAAGACCAAAGAGUGAUGUUCUAAGACGAAAGUCAGAAGGACCGGGACCGAUGACU [TrypBS 10 #SwitchBubble #K4Middle] 128

***
Give the reported apparent KD of K4 kissing-loop reporter for this sequence. CGUGAAUGUCGUCAGUCAUCGGUCCAUGCACGAGGACCGGUACGGCCGCCACUCGAGCGUGGCAGUGAUGUUGCCAGCGCACUAA [KL-XTryp-A13] 128

Give the reported apparent KD of K4 kissing-loop reporter for this sequence. AAGUGAUGUUGUAGUGAUGUUGUGAUGUUGCAGGAUAUAUAGUGAUGUAGAAGGGUAUGUACUUAUUUUUUUUUUGAGUUAUGUU [wzzwzrmullin] 58

Give the reported apparent KD of K4 kissing-loop reporter for this sequence. UGAUACCAGACGGCCGCCACUCCCGCAGGUCAAAGACCUGCGAAGAAGGUUUUUUAGUGAUGUUGGAGGACCGGGUCUGGUAUCU [FiskerMod 20 - Jieux - Exclusion - Tryptophan B] 257

Give the reported apparent KD of K4 kissing-loop reporter for this sequence. UGACUGGACUGAAGGAGCGCUAAACUCCUAGUGAUGUUAGGGAAACGAGACAAAGUCUCGAGGCAGGUAGGUCGCAGUCUAGUCU [FiskerMod 1 - Jieux - Same State - Arginine B] 261

Give the reported apparent KD of K4 kissing-loop reporter for this sequence. ACACUAUCGUCAUAGACGGUAGUGAAAUCACAGGAUAUAAGUGAUGUUAGAAGGGUGAAAGACUGUAUCGAAUAGAUACAGUCAA [FmnA 3 #K4BetweenAptamer #OpenEnded] 913

Give the reported apparent KD of K4 kissing-loop reporter for this sequence. ACUGAGUUGACGAAAGUCAACAAUUGAGAAGGAGCGCACGAAAGUGCAGGUAGGUCGCUCAGUCCAGUGAUGUUGGAUCAUCAGA [#17 K4 Arginine A Same State] 383

---

Test system: K4 kissing-loop RNA reporter;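 further: bound reporter read as fluorescence of individual clusters on recovered sequencing chips by microscopy, with normalized cluster intensities fitted with a binding model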
Test: apparent KD of K4 kissing-loop reporter; higher = weaker reporter binding
Settings: Eterna round: R107; input ligand: tryptophan 2.4 mM
Below is a list of entries, each paired with its recorded apparent KD of K4 kissing-loop reporter value.
Quick note: give the figure in nM, leave out the unit.

Below: 5 sequences and their reported apparent KD of K4 kissing-loop reporter.
State, for K4 kissing-loop RNA reporter, measured apparent KD of K4 kissing-loop reporter of the sequence listed here: CGUUUCUCUGUCGAUACCAGCUUCAGUUGGCGGCCAGUGAUGUUGGUAUCGCCGAUGCCAAGCCCUUGGCAGCGACAUGAGACCC [Gezausin] 166

State, for K4 kissing-loop RNA reporter, measured apparent KD of K4 kissing-loop reporter of the sequence listed here: CGCAGUGAUGUUGCUAUUAUUCUUGAUUAACGAGGACCGGUACGGCCGCCACUCGAUUUCUAUCUAAUCCAGUGUUUUGUUGAGU [JR_ExcTryptoA_Sub002] 240

State, for K4 kissing-loop RNA reporter, measured apparent KD of K4 kissing-loop reporter of the sequence listed here: ACUGAGCAUGCGGCCGCCACUUCAGAACGUCGCCCAAAGGGCGACGCCUCCAGAGUGAUGUUCUGGAGGACCGGGCAUGUUCAGA [Omei KL Tryp B Exc A v1] 112

State, for K4 kissing-loop RNA reporter, measured apparent KD of K4 kissing-loop reporter of the sequence listed here: UGACUGGAUGGAAGGAGCGCUAAACUCCUAGUGAUGUUAGGGAUAUGAGGCAAAGCCUUGAAGCAGGUAGGUCGCCAUCUAGUCU [FiskerMod 26 - Jieux - Same State - Arginine B] 142

State, for K4 kissing-loop RNA reporter, measured apparent KD of K4 kissing-loop reporter of the sequence listed here: CGCAGUGAUGUUGCUAUAUUUCUUGAUUAACGAGGACCGGUACGGCCGCCACUCGAUUUCUCUCUAAUCCACUAUGUUGUUUAGA [JR_SSTryptoA_Sub002] 319

Below: the item to evaluate.
State, for K4 kissing-loop RNA reporter, measured apparent KD of K4 kissing-loop reporter of the sequence listed here: UUUGGUUUCUCGGCCGCCACUCGUUGUCUAUCGGCUUCAGGGAUAUAGUGAUGUUAUGUAUAGAAGAGGACCGGGAGAAGGUUCC [ExTryptoB.Dy] 165
